Data origin, for the record: patent US20200131196A1

Experiment: Whole blood concentrations in mice after IP dosing (LC-MS/MS)
Format: in vivo, mouse
Conditions: mouse, whole blood, intraperitoneal, 2 mg/kg, 2 mg/kg IP QD × 3 days; Day 2; 2.00 hrs; read-out: Formula II Concentrations in Mouse Whole Blood, Mean
Protocol: Shown below are whole blood concentrations following administration of the compound of Formula II to mice. The compound of Formula II was administered to mice at 2 mg/kg or 10 mg/kg and the concentration of the compound in whole blood determined. These determinations were made using protein precipitation, liquid chromatography (LC), and mass spectrometry (MS/MS). […]
quantity name: concentration at 2 h (ng/mL)

structure notation	recorded measurement
CO[C@H]1C[C@@H]2CC[C@@H](C)[C@@](O)(O2)C(=O)C(=O)N2CCCC[C@H]2C(=O)O[C@H]([C@H](C)C[C@H]2C[C@H]3C[C@@H]2C[C@@H]3O)CC(=O)[C@H](C)/C=C(\C)[C@@H](O)[C@@H](OC)C(=O)[C@H](C)C[C@H](C)/C=C/C=C/C=C/1C	435

====

Test system: PC-3
Experiment: OncoPanel cell proliferation assay, PC-3
Details: Homo sapiens, PC-3, read-out: Cell Count EC50
pEC50: −log10 of the molar value.
quantity name: pEC50

molecule	recorded measurement
CO[C@H]1C[C@@H]2CC[C@@H](C)[C@@](O)(O2)C(=O)C(=O)N2CCCC[C@H]2C(=O)O[C@H]([C@H](C)C[C@H]2C[C@H]3C[C@@H]2C[C@@H]3O)CC(=O)[C@H](C)/C=C(\C)[C@@H](O)[C@@H](OC)C(=O)[C@H](C)C[C@H](C)/C=C/C=C/C=C/1C [Formula II]	9.20
CO[C@H]1C[C@@H]2CC[C@@H](C)[C@@](O)(O2)C(=O)C(=O)N2CCCC[C@H]2C(=O)O[C@H]([C@H](C)C[C@@H]2CC[C@@H](O)[C@H](OC)C2)CC(=O)[C@H](C)/C=C(\C)[C@@H](O)[C@@H](OC)C(=O)[C@H](C)C[C@H](C)/C=C/C=C/C=C/1C [Rapamycin, reference compound]	9.64
CN[C@@H]1C[C@H]2O[C@@](C)([C@@H]1OC)n1c3ccccc3c3c4c(c5c6ccccc6n2c5c31)C(=O)NC4 [Staurosporine, reference compound]	9.04

====

Assay: Pharmacokinetics in male Sprague Dawley rats (intravenous and oral)
Type: in vivo, rat
Conditions: rat, blood; male Sprague Dawley rats; single bolus oral dose of 10 mg/kg; read-out: Tmax

compound	Tmax, h
CO[C@H]1C[C@@H]2CC[C@@H](C)[C@@](O)(O2)C(=O)C(=O)N2CCCC[C@H]2C(=O)O[C@H]([C@H](C)C[C@H]2C[C@H]3C[C@@H]2C[C@@H]3O)CC(=O)[C@H](C)/C=C(\C)[C@@H](O)[C@@H](OC)C(=O)[C@H](C)C[C@H](C)/C=C/C=C/C=C/1C [Formula II]	2

====

Experiment: Pharmacokinetics in male Sprague Dawley rats (intravenous and oral)
Assay type: in vivo, rat
Settings: rat, blood; male Sprague Dawley rats; single bolus intravenous dose of 2 mg/kg; read-out: MRT 0-infinity_observed

structure notation	MRT
CO[C@H]1C[C@@H]2CC[C@@H](C)[C@@](O)(O2)C(=O)C(=O)N2CCCC[C@H]2C(=O)O[C@H]([C@H](C)C[C@H]2C[C@H]3C[C@@H]2C[C@@H]3O)CC(=O)[C@H](C)/C=C(\C)[C@@H](O)[C@@H](OC)C(=O)[C@H](C)C[C@H](C)/C=C/C=C/C=C/1C	3.06 h
